Hey, just so you know, these numbers are from patent US10858316B2.

Entries and their pKi values follow.
Molecular target: Mcl-1 (Homo sapiens (Human))
Sequence (Q07820 172-327): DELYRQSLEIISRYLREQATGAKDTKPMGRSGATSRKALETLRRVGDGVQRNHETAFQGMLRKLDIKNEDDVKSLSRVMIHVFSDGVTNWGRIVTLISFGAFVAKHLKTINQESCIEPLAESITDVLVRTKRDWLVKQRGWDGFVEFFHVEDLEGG
Experiment: Fluorescence polarization competition assay (FPCA), Mcl-1 / FITC-Bak BH3 peptide
Assay type: binding
Settings: read-out: Mcl-1 Ki
pKi: −log10 of the molar value.

>  <compound>
Cc1ccc(S(=O)(=O)N(CC(C)C)c2ccc(C(=O)O)c(O)c2)cc1 [Compound 4jc117-2]

>  <value_prefix>
=

>  <pKi>
3.52

$$$$
>  <compound>
O=C(O)C1Cc2ccccc2N(S(=O)(=O)c2ccc(F)cc2)C1 (racemic) [SF-5-136]

>  <value_prefix>
<

>  <pKi>
3.00

$$$$
>  <compound>
Cc1cc(Oc2ccc(S(=O)(=O)N3CC(C(=O)O)Cc4ccccc43)cc2)cc(C)c1Cl (racemic) [SF-5-141]

>  <value_prefix>
=

>  <pKi>
6.54

$$$$
>  <compound>
O=C(O)C1Cc2ccccc2N(S(=O)(=O)c2ccc3ccccc3c2)C1 (racemic) [SF-5-134]

>  <value_prefix>
=

>  <pKi>
4.52

$$$$
>  <compound>
O=C(O)C1Cc2ccccc2N(S(=O)(=O)c2ccc(Br)cc2)C1 (racemic) [SF-5-135]

>  <value_prefix>
<

>  <pKi>
3.00

$$$$
>  <compound>
O=C(O)C1Cc2ccccc2N(S(=O)(=O)c2ccc(-c3ccccc3)cc2)C1 (racemic) [SF-5-133]

>  <value_prefix>
=

>  <pKi>
4.92

$$$$

====

Target: Bcl-xL (Homo sapiens (Human), UniProt Q07817)
Sequence (Q07817 whole entry): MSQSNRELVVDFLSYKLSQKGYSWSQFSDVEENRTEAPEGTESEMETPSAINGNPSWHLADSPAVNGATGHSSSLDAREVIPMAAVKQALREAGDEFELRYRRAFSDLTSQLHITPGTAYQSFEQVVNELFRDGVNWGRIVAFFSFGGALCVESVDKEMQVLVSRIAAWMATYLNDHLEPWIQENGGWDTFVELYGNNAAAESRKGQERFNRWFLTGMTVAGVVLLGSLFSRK
Test: Fluorescence polarization competition assay, Bcl-xL
Format: binding
Conditions: Ki from IC50 by Nikolovska-Coleska equation; NA = no activity; read-out: Bcl-xL Ki
Description: Fluorescence polarization experiments were conducted using a BMG PHERAstar FS multimode microplate reader equipped with two PMTs for simultaneous measurements of the perpendicular and parallel fluorescence emission. The assays were performed in black polypropylene 384-well microplate (Costar) with a final volume of 20 microliter. […] For the fluorescence polarization competition titrations, an equation derived by Nikolovska-Coleska et al. was used to calculate the Ki from the IC50 data.
readout_type: Ki (µM)

>  <molecule>
CC(C)CN(c1ccc(O)c(C(=O)O)c1)S(=O)(=O)c1ccc2ccccc2c1 [jy-5-299 18bb]

>  <numeric_value>
44.6

$$$$
>  <molecule>
Cc1cc(Oc2ccc(N(CC(C)C)S(=O)(=O)c3cc(C(=O)O)c(O)c4ccccc34)cc2)cc(C)c1Cl [Compound 3bj]

>  <numeric_value>
0.17

$$$$
>  <molecule>
COc1ccc(NS(=O)(=O)c2cc(C(=O)O)c(O)c3ccccc23)cc1 [Compound 3z]

>  <numeric_value>
71.9

$$$$
>  <molecule>
O=C(O)c1cc(S(=O)(=O)Nc2ccc(Oc3ccc(Cl)cc3Cl)cc2)c2ccccc2c1O [Compound 3bg]

>  <numeric_value>
0.19

$$$$

====

Molecular target: Mcl-1 (Homo sapiens (Human))
Experiment: Fluorescence polarization competition assay (FPCA), Mcl-1 / FITC-Bak BH3 peptide
Format: binding
Conditions: FPCA with FITC-Bak; Ki from IC50 by Nikolovska-Coleska equation; read-out: Mcl-1 Ki
Measured Ki, listed per entry for reference.
readout_type: Ki (µM)

>  <compound>
Cc1cc(Oc2ccc(S(=O)(=O)N(CC(C)C)c3ccc(C(=O)O)c(O)c3)cc2)cc(C)c1Cl [4jc117-5 13ak]

>  <value_prefix>
=

>  <numeric_value>
0.778

$$$$
>  <compound>
CC(C)CN(c1cccc(C(=O)O)c1)S(=O)(=O)c1ccc(-c2ccccc2)cc1 [4jc177-4 18ac]

>  <value_prefix>
>

>  <numeric_value>
500

$$$$
>  <compound>
CN(C)S(=O)(=O)c1cc(C(=O)O)c(O)c2ccccc12

>  <value_prefix>
=

>  <numeric_value>
25.7

$$$$
>  <compound>
Cc1cc(Oc2ccc(S(=O)(=O)N3CC(C(=O)O)Cc4ccccc43)cc2)cc(C)c1Cl (racemic)

>  <value_prefix>
=

>  <numeric_value>
0.12

$$$$
>  <compound>
CC(C)CN(c1ccc(-c2nnn[nH]2)cc1)S(=O)(=O)c1ccc(Oc2ccccc2)cc1

>  <value_prefix>
=

>  <numeric_value>
3.3

$$$$
>  <compound>
O=C(O)c1cc(S(=O)(=O)Nc2ccc(Oc3ccc(Cl)cc3)cc2)c2ccccc2c1O

>  <value_prefix>
=

>  <numeric_value>
0.173

$$$$
>  <compound>
O=C(O)c1cc(S(=O)(=O)Nc2cccc3ccccc23)c2ccccc2c1O

>  <value_prefix>
=

>  <numeric_value>
11.2

$$$$
>  <compound>
Cc1cc(Oc2ccc(S(=O)(=O)N(c3ccc(C(=O)O)c(O)c3)C3CCCC3)cc2)cc(C)c1Cl [LC-4-104 13bc]

>  <value_prefix>
=

>  <numeric_value>
1.76

$$$$
>  <compound>
O=C(O)c1cc(S(=O)(=O)Nc2ccc(Oc3ccccc3)cc2)c2ccccc2c1O

>  <value_prefix>
=

>  <numeric_value>
1.15

$$$$
>  <compound>
O=C(O)C1Cc2ccccc2N(S(=O)(=O)c2ccc(Br)cc2)C1 (racemic)

>  <value_prefix>
=

>  <numeric_value>
117

$$$$
>  <compound>
Cc1cc(Oc2ccc(S(=O)(=O)N3CCCc4cc(C(=O)O)ccc43)cc2)cc(C)c1Cl

>  <value_prefix>
=

>  <numeric_value>
0.332

$$$$
>  <compound>
Cc1cc(OCCCN2CC(C(=O)O)Cc3ccccc32)cc(C)c1Cl (racemic)

>  <value_prefix>
=

>  <numeric_value>
7.77

$$$$
>  <compound>
O=C(O)c1cc(S(=O)(=O)NCc2ccc(Cl)cc2)c2ccccc2c1O

>  <value_prefix>
=

>  <numeric_value>
21

$$$$
>  <compound>
O=C(O)c1cc(S(=O)(=O)Nc2cccc(Br)c2)c2ccccc2c1O

>  <value_prefix>
=

>  <numeric_value>
5.64

$$$$
>  <compound>
O=C(O)c1cc(S(=O)(=O)Nc2ccccc2)c2ccccc2c1O

>  <value_prefix>
=

>  <numeric_value>
106

$$$$
>  <compound>
O=C(O)c1cc(S(=O)(=O)Nc2ccc(C(F)(F)F)cc2)c2ccccc2c1O

>  <value_prefix>
=

>  <numeric_value>
2.5

$$$$
>  <compound>
O=C(O)c1ccc2c(c1)CCCN2S(=O)(=O)c1ccc(-c2ccccc2)cc1

>  <value_prefix>
=

>  <numeric_value>
14

$$$$
